Sourced from patent US20250171542A1

Some binders, each annotated with its measured Internalization (%), FACS, 0.25 µg/ml, 2 h.
# tested target: human PD-L1 expressed on cell surface (human, UniProt Q9NZQ7 19-290)
# Sequence (Q9NZQ7 19-290 limits assumed): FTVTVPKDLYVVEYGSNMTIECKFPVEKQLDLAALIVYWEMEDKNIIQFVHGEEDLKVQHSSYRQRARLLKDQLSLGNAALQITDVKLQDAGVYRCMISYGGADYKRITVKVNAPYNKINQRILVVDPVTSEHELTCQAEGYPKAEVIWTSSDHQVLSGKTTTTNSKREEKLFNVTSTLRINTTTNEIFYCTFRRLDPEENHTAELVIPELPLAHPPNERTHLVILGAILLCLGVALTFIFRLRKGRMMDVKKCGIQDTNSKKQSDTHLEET
# protocol notes: cell-based or functional assay
Please state the figure in %; there is no need to write the unit.

Previously resolved entries follow.
INSERT INTO measurements (binder, number) VALUES
  ('33H7 (antibody, human IgG1, V domains shown) VH: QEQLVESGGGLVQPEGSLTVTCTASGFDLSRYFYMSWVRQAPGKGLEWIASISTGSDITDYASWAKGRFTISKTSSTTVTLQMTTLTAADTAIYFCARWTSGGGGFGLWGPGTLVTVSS VL: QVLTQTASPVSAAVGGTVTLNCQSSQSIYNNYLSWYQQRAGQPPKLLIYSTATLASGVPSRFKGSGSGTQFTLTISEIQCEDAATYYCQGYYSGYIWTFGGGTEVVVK', 15.2),
  ('69D10 (antibody, human IgG1, V domains shown) VH: QEQLEESGGGLVQPEGSLTLTCTASGFSFSGDWYMSWVRQAPGKGLEWIASIYSGSLNTYYATWAKGRFTVSLTSSTTVTLQMTSLTAADTATYFCARRNKNADYGHFDLWGPGTLVTVSS VL: YDMTQTPASVEVAVGGTVTIKCQASQSIGNALAWYQQKPGQPPKLLIYATSTLASGVPSRFKGSGSGTEFTLTISDLECGDAATYYCQQGWTVSSLDNAFGGGTEVVAK', 18.2),
  ('27A2 (antibody, human IgG1, V domains shown) VH: QEQLEESGGGLVQPEGSLTLTCTASGFSFSSNHYMSWVRQAPGKGLEWIGSIGVGSGITDYASWAKGRFTISKASSTTLTLQMTTLTAADTAIYFCARWTSGGGGFGLWGPGTLVTVSS VL: QVLTQTSSPVSAAVGGTVTINCQSSQTIYSDYLFWYQQTPGQPPKLLIYQTSTLASGVPSRFKGSGSGTEFTLTISEIQCDDAATYYCQGYYSGYIWTFGGGTEVVVR', 18.5),
  ('62E6 (antibody, human IgG1, V domains shown) VH: QEQLEESGGDLVKPEGSLTLTCTASGFSFSGDYYMSWVRQAPGKGLEWIASIYTGSLNIYYATWAKGRFTISLTSSTTVTLQMTSLTAADTATYFCARRNKNADYGHFDLWGPGTLVTVSS VL: YDMTQTPASVEVAVGGTVTIKCQASQSINDRLAWYQQKPRQPPKLLIYGASTLASGVPSRFKGSGSGTEFTLTISDLECVDAATYYCQQGWTVSSLDNAFGGGTEVVAK', 22.3);

The recorded Internalization (%), FACS, 0.25 µg/ml, 2 h for 74A9 (antibody, human IgG1, V domains shown) VH: QSVEESGGRLVTPGTPLTLTCAVSGFSLSTYALGWVRQAPGKGLEWIGSISIGGATYYASWAKGRFTISKTSTTVDLKIASPTTEDTATYFCARNVDSIYLDAFHTWGPGTLVTVSL VL: DIVMTQTPASVEAAVGGTVTIKCQASQNIYNNLAWYQQKPGQPPKLLIYRASTLASGVPSRFKGSGSGTEYTLTISDLECDDAATYYCQTYYLTTTTNAFGGGTEVVVK is 11.5
